Data provenance: PubChem BioAssay AID1159580

Experiment: chemical genetic growth profiling, strain panel (AID 1159580);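 further: tested at 20 µM; growth read once vehicle control cultures reached saturation at 30 °C; lower values mean less growth of the strain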
Conditions: S. cerevisiae deletion strains, growth OD, locus YLL041C, strain sdh2
Among all 5,500 compounds or so, about 2,000 (36%) were called active. Not shown: some 18% with an inconclusive outcome. No stated cut-off is given here; in the data, active means normalized growth mostly below about 0.91 (no sharp cut-off); inconclusive means no clear call, values can overlap the other calls; inactive means mostly above about 0.92. The list shows a part of the results.
Hello, when you answer, please use one of the following outcomes: active, inactive

Query: Outcome logged for CC(=O)O[C@@H]1CC2C(C)(C)[C@H](O)C[C@H](O)[C@]2(C)C2CC[C@@]3(C)[C@H](c4ccoc4)OC(=O)[C@H]4O[C@]43[C@@]21C (stereo not given in full) in this assay:
Reply: inactive

Query: Outcome logged for CC(=O)OCC(=O)[C@H]1CCC2C3CC=C4C[C@@H](O)CC[C@]4(C)C3CC[C@@]21C (stereo not given in full) in this assay:
Reply: active

Query: Outcome logged for CC(C)(O)[C@@H]1CC[C@](C)([C@H]2[C@@H](O)C[C@@]3(C)C4C[C@H](O[C@@H]5O[C@H](CO)[C@@H](O)[C@H](O)[C@H]5O)C5C(C)(C)[C@@H](O[C@@H]6OC[C@@H](O)[C@H](O)[C@H]6O)CC[C@@]56C[C@@]46CC[C@]23C)O1 (stereo not given in full) in this assay:
Reply: inactive

Query: Outcome logged for `CC1=NCCc2c1[nH]c1cc(O)ccc21` in this assay:
Reply: inactive

Query: Outcome logged for `CC(=O)Nc1cccc(O)c1` in this assay:
Reply: inactive

Query: Outcome logged for CN1CCN2c3ccccc3Cc3ccccc3C2C1 (stereo not given) in this assay:
Reply: inactive

Query: Outcome logged for `O=c1c(-c2ccccc2)coc2cc(O)cc(O)c12` in this assay:
Reply: inactive

Query: Outcome logged for CCCCOc1cc(CC2CNC(=O)N2)ccc1OC (stereo not given) in this assay:
Reply: inactive

Query: Outcome logged for `O=C1CC[C@]23C=CC(=O)NCCCCNCCCNC(=O)/C=C/c4ccc(c2c4)O[C@@H]3C1` in this assay:
Reply: inactive

Query: Outcome logged for CC(C)(C)C(=O)C(Oc1ccc(Cl)cc1)n1cncn1 (stereo not given) in this assay:
Reply: active

Query: Outcome logged for `O=c1[nH]c2cc(Cl)c(Cl)cc2[nH]c1=O` in this assay:
Reply: inactive

Query: Outcome logged for `Cn1c(=O)c2[nH]c(C3CCCC3)nc2n(C)c1=O` in this assay:
Reply: inactive

Query: Outcome logged for `COc1cccc2c1cc([N+](=O)[O-])c1c(C(=O)O)cc3c(c12)OCO3` in this assay:
Reply: inactive

Query: Outcome logged for C=C1C(N)CC2CC1C2(C)C (stereo not given) in this assay:
Reply: inactive

Query: Outcome logged for CC(=O)O[C@H]1C[C@@H](O)C(C)(C)C2C[C@@H](OC(C)=O)[C@]3(C)C(CC[C@@]4(C)[C@H](c5ccoc5)OC(=O)C5OC543)[C@]21C (stereo not given in full) in this assay:
Reply: inactive

Query: Outcome logged for `CN(N=O)C(=O)N[C@@H]1[C@@H](O)[C@H](O)[C@@H](CO)O[C@@H]1O` in this assay:
Reply: inactive

Query: Outcome logged for `COc1ccc2cc3[n+](cc2c1OC)CCc1cc2c(cc1-3)OCO2` in this assay:
Reply: inactive

Query: Outcome logged for C=CCc1ccccc1OCC(O)CNC(C)C (stereo not given) in this assay:
Reply: inactive

Query: Outcome logged for `Nc1nc(N)c2nc(-c3ccccc3)c(N)nc2n1` in this assay:
Reply: inactive

Query: Outcome logged for C[C@@H]1CC[C@@]2(OC1)OC1C(O)C3C4CC[C@H]5C[C@H](O[C@@H]6O[C@H](CO)[C@H](O[C@@H]7O[C@H](CO)[C@@H](O)[C@H](O[C@@H]8OC[C@@H](O)[C@H](O)[C@H]8O)[C@H]7O[C@@H]7O[C@H](CO)[C@H](O)[C@H](O[C@@H]8O[C@H](CO)[C@@H](O)[C@H](O)[C@H]8O)[C@H]7O)[C@H](O)[C@H]6O)[C@H](O)C[C@]5(C)C4CC[C@]3(C)C1[C@@H]2C (stereo not given in full) in this assay:
Reply: inactive

Query: Outcome logged for `NCCc1ccc(O)cc1` in this assay:
Reply: inactive

Query: Outcome logged for `COc1ccc(-c2cc(=O)c3c(OC)c(OC)c(OC)c(OC)c3o2)cc1` in this assay:
Reply: inactive

Query: Outcome logged for `N[C@H](CO)Cc1ccccc1` in this assay:
Reply: inactive

Query: Outcome logged for `O=C(O)c1nc2cc(Cl)c(Cl)cc2[nH]c1=O` in this assay:
Reply: inactive

Query: Outcome logged for CC[N+]1(C)CCCC(OC(=O)C(O)(c2ccccc2)c2ccccc2)C1 (stereo not given) in this assay:
Reply: inactive
